- Test system: Jurkat
- assayMethodText: Cytotoxicity against human Jurkat cells assessed as growth inhibition after 48 hrs by MTT assay
- Format: functional, cell-based
pIC50: −log10 of the molar value.

{"molSmiles": "COC(=O)[C@]12CCC(C)(C)C[C@H]1[C@H]1/C(=N\\O)C[C@@H]3[C@@]4(C)CC=C(B5OC(C)(C)C(C)(C)O5)C(C)(C)[C@@H]4CC[C@@]3(C)[C@]1(C)CC2", "pIC50": "< 4.30"}
{"molSmiles": "COC(=O)[C@]12CCC(C)(C)C[C@H]1C1=CC[C@@H]3[C@@]4(C)CC=C(B5OC(C)(C)C(C)(C)O5)C(C)(C)[C@@H]4CC[C@@]3(C)[C@]1(C)CC2", "pIC50": "< 4.30"}
{"molSmiles": "CC1(C)CC[C@]2(C#N)CC[C@]3(C)C(=CC[C@@H]4[C@@]5(C)CC=C(B6OC(C)(C)C(C)(C)O6)C(C)(C)[C@@H]5CC[C@]43C)[C@@H]2C1", "pIC50": "< 4.30"}
{"molSmiles": "C[C@H](NC(=O)[C@]12CCC(C)(C)C[C@H]1C1=CC[C@@H]3[C@@]4(C)CC=C(B5OC(C)(C)C(C)(C)O5)C(C)(C)[C@@H]4CC[C@@]3(C)[C@]1(C)CC2)C(=O)O", "pIC50": 4.67}
{"molSmiles": "COC(=O)[C@]12CCC(C)(C)C[C@H]1[C@H]1C(=O)C=C3[C@@]4(C)CC=C(B5OC(C)(C)C(C)(C)O5)C(C)(C)[C@@H]4CC[C@@]3(C)[C@]1(C)CC2", "pIC50": "< 4.30"}

====

Catalogue of compounds with associated pIC50
- Tested on: HeLa
- assayMethodText: Cytotoxicity against human HeLa cells assessed as growth inhibition after 48 hrs by MTT assay
- Format: functional, cell-based
pIC50: −log10 of the molar value.
recordedEndpoint: pIC50

{"molSmiles": "CC1(C)CC[C@]2(C(=O)O)CC[C@]3(C)C(=CC[C@@H]4[C@@]5(C)CC=C(B6OC(C)(C)C(C)(C)O6)C(C)(C)[C@@H]5CC[C@]43C)[C@@H]2C1", "measurement": "< 4.30"}
{"molSmiles": "COC(=O)[C@]12CCC(C)(C)C[C@H]1C1=CC[C@@H]3[C@@]4(C)CC=C(B5OC(C)(C)C(C)(C)O5)C(C)(C)[C@@H]4CC[C@@]3(C)[C@]1(C)CC2", "measurement": "< 4.30"}
{"molSmiles": "COC(=O)[C@H](C)NC(=O)[C@]12CCC(C)(C)C[C@H]1C1=CC[C@@H]3[C@@]4(C)CC=C(B5OC(C)(C)C(C)(C)O5)C(C)(C)[C@@H]4CC[C@@]3(C)[C@]1(C)CC2", "measurement": "< 4.30"}

====

- Test system: SW480
- assayMethodText: Cytotoxicity against human SW480 cells assessed as growth inhibition after 48 hrs by MTT assay
- Format: functional, cell-based
- particulars: SW480, 48 h
Catalogue of molecules with associated IC50

{"molSmiles": "CC1(C)CC[C@]2(C#N)CC[C@]3(C)C(=CC[C@@H]4[C@@]5(C)CC=C(B6OC(C)(C)C(C)(C)O6)C(C)(C)[C@@H]5CC[C@]43C)[C@@H]2C1", "IC50": "> 50 µM"}
{"molSmiles": "COC(=O)[C@]12CCC(C)(C)C[C@H]1[C@H]1C(=O)C=C3[C@@]4(C)CC=C(B5OC(C)(C)C(C)(C)O5)C(C)(C)[C@@H]4CC[C@@]3(C)[C@]1(C)CC2", "IC50": "> 50 µM"}
{"molSmiles": "COC(=O)[C@H](C)NC(=O)[C@]12CCC(C)(C)C[C@H]1C1=CC[C@@H]3[C@@]4(C)CC=C(B5OC(C)(C)C(C)(C)O5)C(C)(C)[C@@H]4CC[C@@]3(C)[C@]1(C)CC2", "IC50": "> 50 µM"}
